TARGET_OF_ASSAY: Laminin 421/521
ASSAY_COMMENT: phage display, NGS count
MEASUREMENT_LABEL: Count
Answers are plain numbers.

Solved cases (5 shown):
>  <BINDER>
RNLHYPLNHPFM

>  <Count>
30

$$$$
>  <BINDER>
SGWEGKTHQGVR

>  <Count>
69

$$$$
>  <BINDER>
CMNKIQRDC

>  <Count>
131

$$$$
>  <BINDER>
TKGIAPK

>  <Count>
28

$$$$
>  <BINDER>
EVERILTPHVNN

>  <Count>
29

$$$$

Look at each binder and report its Count.
1. SDRGKTVLHGQI
2. IPVGERK
3. TLKAGTRANDGV
4. SLPYAASLNSVE
5. LGSSRSPSSFLG
6. CTPRSATLC
7. GDAQILM
8. TALSHRHEAMRW

1: 54; 2: 124; 3: 32; 4: 28; 5: 29; 6: 37; 7: 38; 8: 28
